biological target: Orexin/Hypocretin receptor type 1 (Homo sapiens); assay: antagonists of human orexin 1 receptor (OX1R) (AID 485270); conditions: OX1R-expressing cells, FRET antagonist read-out; at 6.6 µM; active compounds read high;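 note: 0% = agonist challenge alone and 100% = reference antagonist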
In all, about 330,000 compounds went through this assay and about 5,800 (1.8%) were called active. The sample holds actives, similar compounds and a random draw of the others, so the mix is not that of the screen.
Values of inhibition greater than or equal to 20% map to fulfilled; values below map to not fulfilled.

CHEMICAL SMILES | CLASSIFICATION
O=C(Nc1cccc(Br)c1)c1ccc2snnc2c1 | fulfilled
O=C(Cc1ccc(Cl)c(Cl)c1)Nc1ccc(SC(F)F)cc1 | not fulfilled
CCN([C@H](CO)C(C)C)S(=O)(=O)c1ccccc1Br | not fulfilled
CN1C(=O)[C@H]2[C@@H](/C=C/c3ccccc3)N3C(=O)CN(Cc4ccc(-c5ccccc5)cc4)C(=O)[C@@]3(C)[C@H]2C1=O | not fulfilled
O=C(NCCc1ccc(F)cc1)c1ccc2nccnc2c1 | not fulfilled

Then this molecule:
Task item: Determine whether measured inhibition meets or exceeds 20% for "CC(C)(C)c1cc[n+](-c2[nH]c(=O)sc2/C=N/N=C(\[O-])c2ccccc2)cc1"
Reply: fulfilled

---

target: Orexin/Hypocretin receptor type 1 (Homo sapiens); experiment: antagonists of human orexin 1 receptor (OX1R) (AID 485270); conditions: OX1R-expressing cells, FRET antagonist read-out; at 6.6 µM; active compounds read high;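 note: 0% = agonist challenge alone and 100% = reference antagonist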
The whole screen tested about 330,000 compounds, of which about 5,800 (1.8%) were called active. This excerpt belongs to a sample that is enriched for actives.
PROPERTY: inhibition

COMPOUND | inhibition
CC(=O)c1ccc(OC(=O)N2CCOCC2)cc1 | 0.24% (inactive)
CC(=O)NC(CC(=O)Nc1ccc(S(=O)(=O)N2CCOCC2)cc1)c1ccccc1 (stereo unspecified) | 6.07% (inactive)
CC(NC(=O)COC(=O)Cn1cc(C(F)(F)F)ccc1=O)c1ccccc1 (stereo unspecified) | 3.44% (inactive)
Cc1ccc(NC(=O)CSc2nnc(-c3cnccn3)n2Cc2ccco2)cc1C | 18.9% (inactive)

Task item: For "Cc1n[nH]c(=O)c2c(NC(=O)CSc3ccccc3F)oc(C)c12" , what is its reported inhibition?
Reply: 15.6% (inactive)

Task item: // lookup inhibition for "Cc1c(C(=O)Nc2cccc(S(=O)(=O)N3CCOCC3)c2)oc2ccccc12"
Reply: 24.2% (inactive)

---

target: Orexin/Hypocretin receptor type 1 (Homo sapiens); assay: antagonists of human orexin 1 receptor (OX1R) (AID 485270); conditions: OX1R-expressing cells, FRET antagonist read-out; at 6.6 µM;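 note: 0% = agonist challenge alone and 100% = reference antagonist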
Screen size: about 330,000 compounds; about 5,800 (1.8%) were called active. Cut-off read from the data, not from the text of the source: active = inhibition mostly above about 38% (no sharp cut-off); inactive = mostly below about 40%. Shown is part of a subset that was picked to be rich in actives.
Pick one: yes (active), no (inactive)

As a guide, the following entries are already answered.
CHEMICAL SMILES | CLASSIFICATION
O=C(Oc1ccccc1C(=S)N1CCCCC1)c1cc([N+](=O)[O-])cc([N+](=O)[O-])c1 | yes
Cc1cc(C(=O)O)ccc1[N+](=O)[O-] | no
O=C(Nc1ccc(C(=O)N2CCCCC2)cc1)c1cccc([N+](=O)[O-])c1 | no
COc1cccc(/C=N/Nc2cc(C)nc(-c3ccccc3O)n2)c1O | yes
COc1ccccc1/C=N/Nc1nc(C)c(C(C)=O)s1 | no
CC(=O)c1c(C)[nH]c(C(=O)COC(=O)c2cccs2)c1C | no
Cc1cc[n+](-c2[nH]c(=O)sc2/C=N/NC(=O)c2ccccc2[O-])cc1C | yes
Cc1noc(C)c1NC(=O)Nc1ccc2c(c1)C(=O)N([C@H](C)CO)C[C@H](C)[C@@H](CN(C)S(=O)(=O)c1cn(C)cn1)O2 | no
O=C(Nc1ccc2sc3ccccc3c(=O)c2c1)c1ccccc1Cl | yes
O=C(O[C@H]1[C@H](Cc2ccccc2)NS(=O)(=O)[C@H]2C[C@@H]3C=C[C@]12O3)c1ccc([N+](=O)[O-])cc1 | no

Task item: Assay result, entry "Cc1oc2cc([N+](=O)[O-])c(O)c([N+](=O)[O-])c2c1C(=O)c1ccc(Br)cc1" — outcome?
Reply: yes

---

biological target: Orexin/Hypocretin receptor type 1 (Homo sapiens) (UniProt O43613); assay: antagonists of human orexin 1 receptor (OX1R) (AID 485270); conditions: OX1R-expressing cells, FRET antagonist read-out; at 6.6 µM; active compounds read high;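 note: 0% = agonist challenge alone and 100% = reference antagonist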
Sequence (O43613 whole entry, looked up): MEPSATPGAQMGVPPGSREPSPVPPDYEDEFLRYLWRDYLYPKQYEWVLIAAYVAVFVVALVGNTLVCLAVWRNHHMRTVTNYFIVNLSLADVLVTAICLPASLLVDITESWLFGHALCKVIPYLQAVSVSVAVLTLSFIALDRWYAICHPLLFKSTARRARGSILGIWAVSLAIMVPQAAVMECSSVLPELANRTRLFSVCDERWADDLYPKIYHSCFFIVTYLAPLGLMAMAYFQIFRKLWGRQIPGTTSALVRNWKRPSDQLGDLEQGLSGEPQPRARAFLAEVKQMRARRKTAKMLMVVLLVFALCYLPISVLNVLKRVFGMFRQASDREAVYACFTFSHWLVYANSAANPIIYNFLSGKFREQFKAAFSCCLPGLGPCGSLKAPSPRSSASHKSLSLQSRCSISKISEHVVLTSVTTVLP
About 5,800 (1.8%) of roughly 330,000 compounds were called active. For the sample, actives were picked, then their nearest neighbours and some compounds at random.
PROPERTY: inhibition (%)
# unit: % | format: bare number

COMPOUND | TARGET OR TEST SYSTEM | OBSERVED VALUE
COc1ccc2sc(-c3ccc(S(C)(=O)=O)cc3)c(-c3ccc(C(N)=O)cc3)c2c1 | Orexin/Hypocretin receptor type 1 (Homo sapiens) (UniProt O43613) | 8.78
CN(Cc1ccc(F)cc1)C(=O)CN1C(=O)c2ccccc2S1(=O)=O | Orexin/Hypocretin receptor type 1 (Homo sapiens) (UniProt O43613) | 13.1
CC[C@]1(C(=O)OC)[C@H]2C(=O)N(Cc3ccccc3)C(=O)[C@H]2[C@H]2CN=C(SCc3ccc(C#N)cc3)N21 | Orexin/Hypocretin receptor type 1 (Homo sapiens) (UniProt O43613) | 4.34

Task item: Given "C[C@H](CO)N1C[C@H](C)[C@@H](CN(C)C(=O)NC2CCCCC2)Oc2ccc(NC(=O)c3ccncc3)cc2C1=O" , state its recorded inhibition.
Reply: 1.49

Task item: Using the record for "COc1ccc2sc(-c3ccc(N(C)C)cc3)c(C#CCO)c2c1" , report its inhibition.
Reply: 50.3

Task item: Given the entry CCC(CO)Oc1cc(NC(=O)c2cccc(F)c2)c2ncn(C(C)C)c2c1 (stereo not given) , report its measured inhibition.
Reply: 10.7

Task item: Name the reported inhibition value associated with the compound "O=C(COC(=O)c1ccco1)Nc1ccc(Cl)cn1"
Reply: 1.22

Task item: Would you mind telling me what inhibition value was observed for "CN(C)C(=O)CCc1ccc2c3c([nH]c2c1)[C@]1(CCc2ccccc2)[C@@H](C(=O)N2CCCCC2)C[C@H](CC(=O)NCCC2=CCCCC2)C(=O)N1CC3" ?
Reply: 10.4

Task item: Given the entry COc1ccc(C(CNC(=O)c2ccc(S(=O)(=O)Nc3ccccc3C)cc2)N2CCOCC2)cc1 (stereo not given) , report its measured inhibition.
Reply: 8.1

Task item: Value lookup for inhibition; key = "COc1ccc2sc(-c3ccc(N(C)C)cc3)c(-c3ccc4cc[nH]c4c3)c2c1"
Reply: 9.19

---

Parameter inhibition: see the listing below.
biological target: Orexin/Hypocretin receptor type 1 (Homo sapiens); assay: antagonists of human orexin 1 receptor (OX1R) (AID 485270); details: OX1R-expressing cells, FRET antagonist read-out; at 6.6 µM; active compounds read high;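 note: 0% = agonist challenge alone and 100% = reference antagonist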
About 5,800 (1.8%) of roughly 330,000 compounds were called active. The entries come from a sample that favours actives as a whole.
Lab book: enter the figure in %, no units written.

Task item: What reported inhibition corresponds to O=C(NCc1ccco1)C1CCCN(S(=O)(=O)c2cccc3nonc23)C1 (stereo unspecified) on Orexin/Hypocretin receptor type 1 (Homo sapiens)?
Reply: 95.8

Task item: Param readout= inhibition; system= Orexin/Hypocretin receptor type 1 (Homo sapiens); entry= Cc1cc(C(=O)Cn2cnc3cc([N+](=O)[O-])ccc3c2=O)c(C)n1CC1CCCO1 (stereo unspecified) ; returns value.
Reply: 53.2

---

target: Orexin/Hypocretin receptor type 1 (Homo sapiens) (UniProt O43613); test: antagonists of human orexin 1 receptor (OX1R) (AID 485270); conditions: OX1R-expressing cells, FRET antagonist read-out; at 6.6 µM; active compounds read high;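 note: 0% = agonist challenge alone and 100% = reference antagonist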
Hit rate of the full screen: of about 330,000 compounds, about 5,800 (1.8%) were called active. The entries come from a sample that favours actives as a whole.
PROPERTY: inhibition (%)
Note: unit % is implicit; provide only the numeric part.

Example entries begin here.
COMPOUND | TARGET OR TEST SYSTEM | OBSERVED VALUE
CC1CCN(C(=O)COC(=O)c2cc(=O)[nH]c3ccccc23)CC1 | Orexin/Hypocretin receptor type 1 (Homo sapiens) (UniProt O43613) | 3.71
CCC(=C/c1sc2ccc3ccccc3c2[n+]1C)/C=C1\Sc2ccc3ccccc3c2N1C | Orexin/Hypocretin receptor type 1 (Homo sapiens) (UniProt O43613) | 42.8
Cc1nc(N2CCOCC2)nc2c1CCCC2 | Orexin/Hypocretin receptor type 1 (Homo sapiens) (UniProt O43613) | 5.29
CC(Sc1nncn1C)C(=O)NCCC1=CCCCC1 (stereo not given) | Orexin/Hypocretin receptor type 1 (Homo sapiens) (UniProt O43613) | 5.26

Task item: Enter reported inhibition observed with Orexin/Hypocretin receptor type 1 (Homo sapiens) (UniProt O43613) for "CN1CCN(C(=O)c2ccc(-c3ccc(Br)cc3)o2)CC1"
Reply: 8.86
